molecular target: Human immunodeficiency virus type 1 protease (Human immunodeficiency virus 1); test: Inhibition constant against HIV Protease
REPORTED_ENDPOINT: Ki (nM)

Some entries whose results are on file:
MOLECULE	Ki / nM
COCCOCCOc1ccc(C[C@H](CC(=O)CN2C(=O)[C@@H](Cc3ccccc3)C[C@@H]2Cc2ccccc2)C(=O)NC2c3ccccc3C[C@H]2O)cc1 (some centres undefined)	0.02
O=C(C[C@@H](Cc1ccccc1)C(=O)NC1c2ccccc2C[C@H]1O)CN1C(=O)[C@@H](Cc2ccccc2)C[C@@H]1Cc1ccc(OCc2ccccc2)cc1 (some centres undefined)	0.13
O=C(C[C@@H](Cc1ccccc1)C(=O)NC1c2ccccc2C[C@H]1O)CN1C(=O)[C@@H](Cc2ccccc2)C[C@@H]1Cc1ccc(OCC(=O)N2CCOCC2)cc1 (some centres undefined)	0.1
O=C(C[C@@H](Cc1ccccc1)C(=O)NC1c2ccccc2C[C@H]1O)CN1C(=O)[C@@H](Cc2ccccc2)C[C@@H]1Cc1ccc(OCCN2CCOCC2)cc1 (some centres undefined)	1.3
O=C(C[C@@H](Cc1ccccc1)C(=O)NC1c2ccccc2C[C@H]1O)CN1C(=O)[C@@H](Cc2ccccc2)C[C@@H]1Cc1ccccc1 (some centres undefined)	0.05
O=C(C[C@@H](Cc1ccc(OCc2ccccc2)cc1)C(=O)NC1c2ccccc2C[C@H]1O)CN1C(=O)[C@@H](Cc2ccccc2)C[C@@H]1Cc1ccccc1 (some centres undefined)	0.11
O=C(C[C@@H](Cc1ccc(OCc2ccccn2)cc1)C(=O)NC1c2ccccc2C[C@H]1O)CN1C(=O)[C@@H](Cc2ccccc2)C[C@@H]1Cc1ccccc1 (some centres undefined)	0.07
O=C(C[C@@H](Cc1ccc(OCCO)cc1)C(=O)NC1c2ccccc2C[C@H]1O)CN1C(=O)[C@@H](Cc2ccccc2)C[C@@H]1Cc1ccccc1 (some centres undefined)	0.02
O=C(C[C@@H](Cc1ccc(OCCN2CCOCC2)cc1)C(=O)NC1c2ccccc2C[C@H]1O)CN1C(=O)[C@@H](Cc2ccccc2)C[C@@H]1Cc1ccccc1 (some centres undefined)	0.14
NC(=O)COc1ccc(C[C@H](CC(=O)CN2C(=O)[C@@H](Cc3ccccc3)C[C@@H]2Cc2ccccc2)C(=O)NC2c3ccccc3C[C@H]2O)cc1 (some centres undefined)	0.07

P = O=C(C[C@@H](Cc1ccccc1)C(=O)NC1c2ccccc2C[C@H]1O)CN1C(=O)[C@@H](Cc2ccccc2)C[C@@H]1Cc1ccc(OCCO)cc1 (some centres undefined)
Q = CN1CCN(C(=O)COc2ccc(C[C@H](CC(=O)CN3C(=O)[C@@H](Cc4ccccc4)C[C@@H]3Cc3ccccc3)C(=O)NC3c4ccccc4C[C@H]3O)cc2)CC1 (some centres undefined)
R = O=C(C[C@@H](Cc1ccc(OCC(=O)N2CCOCC2)cc1)C(=O)NC1c2ccccc2C[C@H]1O)CN1C(=O)[C@@H](Cc2ccccc2)C[C@@H]1Cc1ccccc1 (some centres undefined)
query: Hello, I need these entries ordered by Ki, highest reading first. Thanks! Thanks in advance for listing the labels in the requested order.
result: P, Q, R
(P: 0.3 nM, Q: 0.05 nM, R: 0.02 nM)
